# target.entity: HuCD100 (cell surface) (human, UniProt Q92854)
# Sequence (Q92854 22-734): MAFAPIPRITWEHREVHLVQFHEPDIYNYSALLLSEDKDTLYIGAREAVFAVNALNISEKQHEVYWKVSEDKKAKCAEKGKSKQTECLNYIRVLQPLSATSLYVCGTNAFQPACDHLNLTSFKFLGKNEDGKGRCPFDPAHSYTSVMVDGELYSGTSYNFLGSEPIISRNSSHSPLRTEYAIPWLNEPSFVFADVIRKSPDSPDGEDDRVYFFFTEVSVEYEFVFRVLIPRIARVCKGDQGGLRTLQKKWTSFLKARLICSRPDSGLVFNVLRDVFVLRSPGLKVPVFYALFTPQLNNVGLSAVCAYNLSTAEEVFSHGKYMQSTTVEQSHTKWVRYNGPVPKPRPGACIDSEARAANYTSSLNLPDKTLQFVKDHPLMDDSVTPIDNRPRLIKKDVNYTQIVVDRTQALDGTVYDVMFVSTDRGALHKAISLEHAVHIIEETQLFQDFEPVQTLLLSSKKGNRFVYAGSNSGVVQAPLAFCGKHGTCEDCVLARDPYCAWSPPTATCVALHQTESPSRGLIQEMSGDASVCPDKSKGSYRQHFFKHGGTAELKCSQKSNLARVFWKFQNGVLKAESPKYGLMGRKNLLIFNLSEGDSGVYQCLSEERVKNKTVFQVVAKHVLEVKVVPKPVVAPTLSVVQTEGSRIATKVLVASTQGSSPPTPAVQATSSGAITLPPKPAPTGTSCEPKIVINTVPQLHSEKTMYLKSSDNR
# protocol.description: FACS, HuPBMC
recorded.endpoint: EC50 (µg/mL)
Give the quantity in µg/mL, number only.

- binder: "C-B71 (antibody, V domains shown) VH: QVQLQESGPGLVKPSQTLSLTCTVSGGSISSGGYYWSWIRQHPGKGLEWIGYIYYSGSTYYNPSLKSRVTISVDTSKNQFSLKLSSVTAADTAVYYCAREGVAAAGIDYWGQGTPVTVSS VL: NIQLTQSPSSVSASVGDRVTITCRASQGISSWLAWYQQKPGKAPKLLISTASSVQSGVPTRFSASGSGTDFTLTISSLQPEDFATYYCQQGYRTPWTFGQGTKVEIK"
  EC50, µg/mL: 0.177
- binder: "H12 (antibody, V domains shown) VH: QVQLQESGPGLVKPSGTLSLTCAVSGGSISSSNWWSWVRQPPGKGLEWIGEIYHSGSTNYNPSLKSRVTISVDKSKNQFSLKLSSVTAADTAVYYCARFVSSGYLGAFDIWGQGTMVTVSS VL: QSVLTQPPSVSVSPGQTASITCSGDRLGDKYSYWYQQKPGQSPVLVIYQDSKRPSGIPERFSGSNSGNTATLTISGTQAMDEADYYCQVWDSSTAVFGGGTKLTVL"
  EC50, µg/mL: 0.0177

Pending binder:
Input line: Which value of EC50 has been reported for B13 (antibody, V domains shown) VH: QVQLQQWGAGLLKPSETLSLTCAISSGSFSGYYWTWIRQPPGKGLEWIGETNHNGFTTYNTSLKSRITISIDASKNQFYLNLSSVTAADTATYFCARGPAYYADALDGFDIWGQGTMVTVSS VL: QSVLTQPPSVSVSPGQTASITCSGDKLGDKYVSWYQQKPGQSPVLVIYQDNKRPSGIPERFSGSNSGNTATLTISGTQAMDEADYYCQAWDSSTKAYVFGAGTKVTVL in the records?
Output line: 0.0109
